Origin of the recorded values: patent US20240166635A1

target: CDK6/CyclinD1 (Homo sapiens (Human), UniProt Q00534); test: CDK6/CyclinD1 kinase inhibitory activity (Caliper mobility shift); conditions: read-out: CDK6/Cyclin D1 IC50
Sequence (Q00534 whole entry): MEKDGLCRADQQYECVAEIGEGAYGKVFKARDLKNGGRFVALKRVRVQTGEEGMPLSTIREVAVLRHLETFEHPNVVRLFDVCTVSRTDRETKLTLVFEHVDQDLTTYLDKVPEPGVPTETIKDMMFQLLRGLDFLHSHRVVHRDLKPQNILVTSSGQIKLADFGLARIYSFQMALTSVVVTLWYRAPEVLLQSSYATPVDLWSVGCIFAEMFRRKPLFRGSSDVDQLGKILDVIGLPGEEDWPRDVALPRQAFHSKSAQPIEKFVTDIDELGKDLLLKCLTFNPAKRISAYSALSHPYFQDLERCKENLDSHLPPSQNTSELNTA
Sequence (P24385 whole entry partner): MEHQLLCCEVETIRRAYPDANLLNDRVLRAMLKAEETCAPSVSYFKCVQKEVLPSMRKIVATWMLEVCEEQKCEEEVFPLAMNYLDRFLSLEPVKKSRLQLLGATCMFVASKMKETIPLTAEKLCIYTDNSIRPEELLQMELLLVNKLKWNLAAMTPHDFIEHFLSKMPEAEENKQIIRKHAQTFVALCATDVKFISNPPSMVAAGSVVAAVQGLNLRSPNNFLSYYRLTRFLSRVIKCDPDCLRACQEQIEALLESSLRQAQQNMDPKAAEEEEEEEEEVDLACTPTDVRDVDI

| COMPOUND | IC50 |
| --- | --- |
| CNS(=O)(=O)N1CCC(Nc2ncc(C(F)(F)F)c(OC3CCCCCC3)n2)CC1 | 100 to 1000 nM |
| [2H]C([2H])([2H])NS(=O)(=O)c1ccc(Nc2ncc(C(F)(F)F)c(OC3CCOCCC3O)n2)cc1 (single isomer, unassigned) [Example 102b] | 100 to 1000 nM |
| CS(=O)(=O)N1CCC(Nc2ncc(C(F)(F)F)c(OC3CCC3)n2)CC1 | 10 to 100 nM |
| CC1(O)CC(F)(F)CC1Oc1nc(NC2CCN(S(=O)(=O)CC3CC3)CC2)ncc1C#N (single isomer, unassigned) [Example 44a] | 10 to 100 nM |
| C[C@@H]1CCCN(c2nc(Nc3ccc(S(N)(=O)=O)cc3)ncc2C#N)C1 | 100 to 1000 nM |
| C[C@]1(O)CCC[C@H]1Oc1nc(NC2CCN(S(C)(=O)=O)CC2)ncc1C#N (relative stereo) [Example 3b] | < 10 nM |
| CC1(NS(=O)(=O)c2ccc(Nc3ncc(Br)c(O[C@@H]4CCC[C@@H]4O)n3)cc2)COC1 (single isomer, unassigned) [Example 131a] | 100 to 1000 nM |
| [2H]C([2H])([2H])NS(=O)(=O)c1ccc(Nc2ncc(C)c(OC3CCCC3O)n2)cc1 (single isomer, unassigned) [Example 148a] | 100 to 1000 nM |
| [2H]C1([2H])CC(O)C(Oc2nc(Nc3ccc(S(=O)(=O)NC([2H])([2H])[2H])cc3)ncc2C(F)(F)F)C1 (single isomer, unassigned) [Example 110a] | 10 to 100 nM |
| N#Cc1cnc(Nc2ccc(S(N)(=O)=O)cc2)nc1-c1ccccc1 | ≥ 1000 nM |
| CC1(COc2nc(NC3CCN(S(C)(=O)=O)CC3)ncc2C(F)(F)F)CCCC1 | 10 to 100 nM |
| CC1(O)COCCC1Oc1nc(NC2CCN(S(C)(=O)=O)CC2)ncc1C#N (single isomer, unassigned) [Example 45b] | 100 to 1000 nM |
| Cn1cnc(S(=O)(=O)N2CCC(Nc3ncc(C#N)c(OC4CCCC4(C)O)n3)CC2)n1 (single isomer, unassigned) [Example 51a] | 10 to 100 nM |
| CO[C@H]1C[C@](C)(COc2nc(NC3CCN(S(=O)(=O)c4cnn(C)c4)CC3)ncc2C#N)C1 [Example 64a] | 10 to 100 nM |

====

target: CDK1/CyclinB (Homo sapiens (Human), UniProt P06493); assay: CDK1/CyclinB kinase inhibitory activity (Caliper mobility shift); conditions: read-out: CDK1/Cyclin B1 IC50
Sequence (P06493 whole entry): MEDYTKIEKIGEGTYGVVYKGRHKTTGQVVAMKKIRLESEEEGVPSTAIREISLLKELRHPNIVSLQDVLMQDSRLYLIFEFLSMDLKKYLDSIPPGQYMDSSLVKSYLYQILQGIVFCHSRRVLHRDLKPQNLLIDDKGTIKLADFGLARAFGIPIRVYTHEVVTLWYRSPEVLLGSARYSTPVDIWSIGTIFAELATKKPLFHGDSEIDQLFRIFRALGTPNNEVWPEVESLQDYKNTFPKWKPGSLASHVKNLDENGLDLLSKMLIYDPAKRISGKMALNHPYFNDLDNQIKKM
Sequence (P14635 whole entry partner): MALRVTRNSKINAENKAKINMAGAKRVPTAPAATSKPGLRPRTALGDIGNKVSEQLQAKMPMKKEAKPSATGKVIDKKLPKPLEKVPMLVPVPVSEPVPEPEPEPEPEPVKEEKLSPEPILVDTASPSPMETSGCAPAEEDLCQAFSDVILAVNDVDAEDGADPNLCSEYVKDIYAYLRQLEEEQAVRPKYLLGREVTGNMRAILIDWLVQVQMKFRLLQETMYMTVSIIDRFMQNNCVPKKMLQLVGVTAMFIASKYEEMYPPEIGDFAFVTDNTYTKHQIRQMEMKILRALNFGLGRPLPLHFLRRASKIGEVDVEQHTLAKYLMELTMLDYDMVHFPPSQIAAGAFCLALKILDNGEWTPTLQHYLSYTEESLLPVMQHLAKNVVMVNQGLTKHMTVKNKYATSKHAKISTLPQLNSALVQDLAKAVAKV
pIC50: −log10 of the molar value.
QUANTITY_KIND: pIC50

| COMPOUND | QUANTITY_KIND | RESULT |
| --- | --- | --- |
| CNS(=O)(=O)N1CCC(Nc2ncc(C#N)c(OCC3(C)CCCC3)n2)CC1 [Example 55] | pIC50 | 7.00 to 8.00 |
| N#Cc1cnc(Nc2ccc(S(N)(=O)=O)cc2)nc1N1CCC(O)CC1 [Example 82] | pIC50 | 6.00 to 7.00 |
| NS(=O)(=O)c1ccc(Nc2ncc(C(F)(F)F)c(OC3COCCC3O)n2)cc1 (single isomer, unassigned) [Example 115b] | pIC50 | 6.00 to 7.00 |
| NS(=O)(=O)c1ccc(Nc2ncc(C(F)(F)F)c(OC3CCOCC3O)n2)cc1 (single isomer, unassigned) [Example 114a] | pIC50 | 7.00 to 8.00 |
| N#Cc1cnc(Nc2ccc(S(N)(=O)=O)cc2)nc1OCC1CCCC1 [Example 1] | pIC50 | 7.00 to 8.00 |
| CS(=O)(=O)N1CCC(Nc2ncc(C(F)(F)F)c(OC3CCCCC3)n2)CC1 [Example 127] | pIC50 | 7.00 to 8.00 |
| CC1(NS(=O)(=O)c2ccc(Nc3ncc(Br)c(O[C@@H]4CCC[C@@H]4O)n3)cc2)COC1 (single isomer, unassigned) [Example 131b] | pIC50 | 6.00 to 7.00 |
| CS(=O)(=O)N1CCC(Nc2ncc(C(F)(F)F)c(OC3CCCCCC3O)n2)CC1 (single isomer, unassigned) [Example 121a] | pIC50 | 7.00 to 8.00 |
| CC1(O)CCCC1Oc1nc(Nc2ccc(S(N)(=O)=O)cc2)ncc1C1CC1 (single isomer, unassigned) [Example 154b] | pIC50 | 7.00 to 8.00 |
| CNS(=O)(=O)N1CCC(Nc2ncc(C(F)(F)F)c(OC3CCCCCC3O)n2)CC1 (single isomer, unassigned) [Example 123b] | pIC50 | 7.00 to 8.00 |
| [2H]C([2H])([2H])NS(=O)(=O)c1ccc(Nc2ncc(C(F)(F)F)c(OC3CCCC3O)n2)cc1 (single isomer, unassigned) [Example 109b] | pIC50 | 6.00 to 7.00 |
| Cn1cnc(S(=O)(=O)N2CCC(Nc3ncc(C#N)c(OC4CCCC4(C)O)n3)CC2)c1 (single isomer, unassigned) [Example 50a] | pIC50 | > 8.00 |
| Cn1cc(S(=O)(=O)N2CCC(Nc3ncc(C#N)c(OCC4(C)CCCC4)n3)CC2)cn1 [Example 62] | pIC50 | > 8.00 |
| CCS(=O)(=O)N1CCC(Nc2ncc(C#N)c(OC3CCCC3(C)O)n2)CC1 (single isomer, unassigned) [Example 36a] | pIC50 | 6.00 to 7.00 |
| [2H]C([2H])([2H])NS(=O)(=O)c1ccc(Nc2ncc(C#N)c(OC3CCCOCC3)n2)cc1 (single isomer, unassigned) [Example 33a] | pIC50 | 7.00 to 8.00 |
| N#Cc1cnc(Nc2ccc(S(N)(=O)=O)cc2)nc1OC1CCCC1 [Example 10] | pIC50 | 7.00 to 8.00 |
| N#Cc1cnc(Nc2ccc(S(N)(=O)=O)cc2)nc1-c1cccc(C2CC2)c1 [Example 96] | pIC50 | 6.00 to 7.00 |
| CC(C)CS(=O)(=O)N1CCC(Nc2ncc(C#N)c(OC3CCCC3(C)O)n2)CC1 (single isomer, unassigned) [Example 39b] | pIC50 | 6.00 to 7.00 |
| O=S(=O)(NC1CC1)c1ccc(Nc2ncc(C(F)(F)F)c(OC3CCCC3O)n2)cc1 (single isomer, unassigned) [Example 107a] | pIC50 | 7.00 to 8.00 |
| CC1(COc2nc(NC3CCN(S(C)(=O)=O)CC3)ncc2C(F)(F)F)CCCC1 [Example 128] | pIC50 | 7.00 to 8.00 |
| CC1CCCC1Oc1nc(Nc2ccc(S(N)(=O)=O)cc2)ncc1C#N (centres unmarked) [Example 11] | pIC50 | > 8.00 |
| C[C@]1(O)CCC[C@H]1Oc1nc(NC2CCN(S(C)(=O)=O)CC2)ncc1C#N (relative stereo) [Example 3b] | pIC50 | 7.00 to 8.00 |
| [2H]C([2H])([2H])NS(=O)(=O)c1ccc(Nc2ncc(C(F)(F)F)c(O[C@H]3CCCOC[C@H]3O)n2)cc1 (single isomer, unassigned) [Example 103b] | pIC50 | 6.00 to 7.00 |
